test system: KM12 colon; experiment: NCI tumour cell line growth inhibition, 48 h; in the data active = GI50 below about 0.43 µM; inactive = the rest
Your reply should match one of these outcome classes. active, inactive

q: // outcome(item) with item = [Co].[O-]c1cccnc1C=Nc1ccccc1.[OH3+]
a: inactive

q: Which outcome was assigned to CCN1C(=O)N(CC)C2C1NN=c1s/c(=C\c3ccc(C(F)(F)F)cc3)c(=O)n12 (stereo not given) in this test?
a: active

q: Field: outcome | Entry: O=C(CCCC(=O)N/N=C/c1cc(Cl)ccc1O)N/N=C\c1cc(Cl)ccc1O
a: inactive

q: What call does the record list for COc1ccc(C2CC(c3ccc(OC)cc3O)=NN2c2ccc(S(N)(=O)=O)cc2)cc1 (stereo not given) ?
a: inactive

q: Lab log entry: CCCCc1n(Cc2ccc3ccccc3n2)cc[n+]1Cc1ccc2ccccc2n1 — outcome as called in the assay?
a: inactive

q: # fetch the recorded call for Cc1ccc(-c2nc(/C=N/Nc3cc(C)nc4ccc(Br)cc34)c(C)o2)cc1 here
a: inactive

q: Fill in: this test's call for COc1cc2c(/C=C3/C(=O)Nc4ccc(O)cc43)c(Cl)n(Cc3cc(OC)c(OC)c(OC)c3)c2cc1C is ___
a: inactive

q: Give the logged outcome of this assay for the following molecule: CC(C)CCCCCCCCCCCCC(=O)NCC(=O)NC1C(C)OC(Nc2ncnc3nc[nH]c23)C(O)C1O (stereo not given)
a: active

q: Outcome? O=C1c2ccccc2C(=O)c2c1oc1c2c(=O)[nH]c2ccc(Cl)cc21
a: inactive

q: // outcome(item) with item = COc1ccc(-c2cc(-c3ccc(OC)cc3)nc(NCCCNc3ccnc4cc(Cl)ccc34)n2)cc1
a: inactive

q: Lab log entry: CN[C@@H](Cc1cccc2ccccc12)C(=O)N[C@@H](CC(C)C)B(O)O — outcome as called in the assay?
a: active

q: In this assay, the call recorded for COc1cc(NS(C)(=O)=O)ccc1Cc1c2ccccc2nc2ccccc12 was what?
a: active

q: Assay result, entry CC[C@H]1CCC/C=C/[C@@H]2C[C@H](O)C[C@H]2[C@H](O)/C=C/C(=O)O1 — outcome?
a: active

q: Could you kindly confirm the outcome this assay logged for COc1ccc(-c2oc3c(OC)c(OC)c(OC)c(O)c3c(=O)c2OC)cc1O ?
a: inactive

q: Could you kindly confirm the outcome this assay logged for O=C(Nc1n[nH]c2nc(-c3ccc(O)cc3)c(Br)cc12)C1CC1 ?
a: inactive
